# reported pEC50; entries follow
system: pLAI reporter virus; assay: microbe, parasite or virus in culture; format: cell-based, HIV; details: Human immunodeficiency virus 1, MT4, 72 h, read-out: RLUC CCM EC50
Please treat pEC50 as minus the base-10 logarithm of the molar concentration.

Some solved cases for reference:
> print(dat)
                               given.smiles  readout.value
1  C[C@H]1CC[C@]2(CC(S(C)(=O)=O)=NO2)[C@H]2CN1C(=O)c1c(O)c(=O)c(C(=O)NCc3c(F)cc(F)cc3F)cn12           8.92
2  COC1=NO[C@@]2(CC[C@H](C)N3C[C@H]2n2cc(C(=O)NCc4c(F)cc(F)cc4F)c(=O)c(O)c2C3=O)C1           9.70

Here is another compound to look at.
Value lookup for pEC50; key = C[C@@H]1OC[C@]2(CC[C@H](C)N3C[C@H]2n2cc(C(=O)NCc4c(F)cc(F)cc4F)c(=O)c(O)c2C3=O)O1
9.30

----------
test system: pLAI reporter virus; assay: microbe, parasite or virus in culture; format: cell-based, HIV; settings: Human immunodeficiency virus 1, MT4, 72 h, read-out: RLUC CCM EC50
# reported pEC50; entries follow
Please treat pEC50 as minus the base-10 logarithm of the molar concentration.

Some solved cases for reference:
> print(dat)
                                   compound      measured.target  readout.value
1  COC1=NO[C@@]2(CC[C@H](CF)N3C[C@H]2n2cc(C(=O)NCc4ccc(F)cc4F)c(=O)c(O)c2C3=O)C1 [Example 100]  pLAI reporter virus           9.52
2  C[C@H]1CC[C@@]2(CC(O)CO2)[C@H]2CN1C(=O)c1c(O)c(=O)c(C(=O)NCc3c(F)cc(F)cc3F)cn12 (stereo partly drawn) [Example 123]  pLAI reporter virus           8.68

Value lookup for pEC50; key = C[C@H]1CC[C@]2(CC(C#CC(C)(C)S(C)(=O)=O)=NO2)[C@H]2CN1C(=O)c1c(O)c(=O)c(C(=O)NCc3c(F)cc(F)cc3F)cn12 [Example 79]
9.00

----------
experiment: in vitro; details: human, uninfected MT-4 cells
Observation Type: CC50 at 5 days (µM)
The response must be a number in µM with no trailing unit.

Some solved cases for reference:
> print(dat)
                               given.smiles  observation.type  reading.unit  readout.value
1  C[C@H]1CC[C@]2(COCO2)[C@H]2CN1C(=O)c1c(O)c(=O)c(C(=O)NCc3c(F)cc(F)cc3F)cn12    CC50 at 5 days            µM           9.84
2  C[C@H]1CC[C@]2(CC(=O)N(Cc3ccc(F)cc3F)O2)[C@H]2CN1C(=O)c1c(O)c(=O)c(C(=O)NCc3c(F)cc(F)cc3F)cn12    CC50 at 5 days            µM             12
3  COCCOC1=NO[C@@]2(CC[C@H](C)N3C[C@H]2n2cc(C(=O)NCc4c(F)cc(F)cc4F)c(=O)c(O)c2C3=O)C1    CC50 at 5 days            µM           22.1

Value lookup for CC50 at 5 days; key = COc1ccc(CN2C(C)=NO[C@@]23CC[C@H](C)N2C[C@H]3n3cc(C(=O)NCc4ccc(F)cc4F)c(=O)c(O)c3C2=O)cc1
7.53
